Entry source: patent US11976073B2

Provide the recorded pIC50 for the entries that follow.
target: CDK2/Cyclin E1 (Homo sapiens)
Construct: utilize full-length human CDK2 co-expressed as N-terminal GST-tagged protein; GST (N)
assay_summary: CDK2/Cyclin E1 HTRF enzyme activity assay
assay_conditions: 1 mM ATP
pIC50: −log10 of the molar value.

1) CC(C)Oc1c(-c2cn[nH]c2)ncn2nc(NC3CCC(S(C)(=O)=O)CC3)nc12 (single isomer, unassigned) = ≥ 8.00

Switching to the query record.
Can you look up the measured pIC50 of CS(=O)(=O)C1CCC(Nc2nc3cnc(-c4cn[nH]c4)c(OC4(C(F)(F)F)CCC4)n3n2)CC1 (single isomer, unassigned) for me? ≥ 8.00
